Data provenance is patent US20080031866A1.

Assay: Intracolonic dosing with and without β-glucuronidase, catheterized rat
Type: in vivo
Settings: male, Sprague Dawley, rat, plasma, 10 mg/kg, rats N=6; Compound 1 10 mg/kg intracolonic with β-glucuronidase; read-out: AUC average ± standard deviation 0 to 6 hours
Listed compounds paired with reported AUC
Attribute Measured: AUC

> print(dat)
                                   compound  attribute.measured        result
1  COc1cc2c(cc1OC)-c1nn(C3OC(C(=O)O)C(O)C(O)C3O)c(Nc3cccc(F)c3)c1C2 (stereo in doubt)                 AUC   176 ng·h/mL
2  COc1cc2c(cc1OC)-c1n[nH]c(Nc3cccc(F)c3)c1C2                 AUC   9.5 ng·h/mL
3  COc1cc2c(cc1OC)-c1n[nH]c(N(c3cccc(F)c3)[C@H]3O[C@@H](C(=O)O)[C@H](O)[C@@H](O)[C@@H]3O)c1C2                 AUC  1770 ng·h/mL

* * *

Experiment: Solubility
Assay type: physicochemical
Conditions: aqueous media, aqueous buffer; pH 3.0; read-out: Solubility in aqueous media
Attribute Measured: solubility

> print(dat)
                                   compound     result
1  COc1cc2c(cc1OC)-c1n[nH]c(Nc3cccc(F)c3)c1C2 [Compound 1]  < 6 µg/mL

* * *

Experiment: Oral gavage pharmacokinetics, jugular and portal vein sampling, first pass metabolism
Assay type: in vivo, rat
Conditions: male, Sprague Dawley, rat, plasma (jugular vein sample); rats N=4; Compound 1 75 mg/kg oral gavage; jugular sample; 6 hrs
Attribute Measured: concentration at 6 h (ng/mL)

> print(dat)
                                   compound    attribute.measured  numeric.result
1  COc1cc2c(cc1OC)-c1n[nH]c(N(c3cccc(F)c3)[C@H]3O[C@@H](C(=O)O)[C@H](O)[C@@H](O)[C@@H]3O)c1C2  concentration at 6 h            4290
2  COc1cc2c(cc1OC)-c1n[nH]c(Nc3cccc(F)c3)c1C2  concentration at 6 h            51.1
3  COc1cc2c(cc1OC)-c1nn(C3OC(C(=O)O)C(O)C(O)C3O)c(Nc3cccc(F)c3)c1C2 (stereo in doubt)  concentration at 6 h            71.3

* * *

Assay: Intracolonic dosing with and without β-glucuronidase, catheterized rat
Assay type: in vivo
Details: male, Sprague Dawley, rat, plasma, other: intracolonic, 10 mg/kg, rats N=6; Compound 1 10 mg/kg intracolonic with β-glucuronidase; 5 hrs
Listed compounds paired with reported concentration at 5 h
Attribute Measured: concentration at 5 h

> print(dat)
                                   compound    attribute.measured     result
1  COc1cc2c(cc1OC)-c1n[nH]c(N(c3cccc(F)c3)[C@H]3O[C@@H](C(=O)O)[C@H](O)[C@@H](O)[C@@H]3O)c1C2  concentration at 5 h  420 ng/mL
2  COc1cc2c(cc1OC)-c1n[nH]c(Nc3cccc(F)c3)c1C2  concentration at 5 h  3.7 ng/mL
3  COc1cc2c(cc1OC)-c1nn(C3OC(C(=O)O)C(O)C(O)C3O)c(Nc3cccc(F)c3)c1C2 (stereo in doubt)  concentration at 5 h  146 ng/mL

* * *

Assay: IV pharmacokinetics of Compound 1 and its glucuronides in rats
Type: in vivo, rat
Details: Sprague Dawley, rat, plasma; male rats N=4; Compound 1 2 mg/kg IV; retro orbital sinus; 1 hr
Listed molecules paired with reported concentration at 1 h
Attribute Measured: concentration at 1 h

> print(dat)
                                   molecule    attribute.measured      result
1  COc1cc2c(cc1OC)-c1nn(C3OC(C(=O)O)C(O)C(O)C3O)c(Nc3cccc(F)c3)c1C2 (stereo in doubt) [Cpd 1-GluB]  concentration at 1 h  17.8 ng/mL
2  COc1cc2c(cc1OC)-c1n[nH]c(Nc3cccc(F)c3)c1C2 [Compound 1]  concentration at 1 h  71.3 ng/mL
3  COc1cc2c(cc1OC)-c1n[nH]c(N(c3cccc(F)c3)[C@H]3O[C@@H](C(=O)O)[C@H](O)[C@@H](O)[C@@H]3O)c1C2 [Cpd 1-GluA]  concentration at 1 h  1670 ng/mL

* * *

Test: Oral gavage pharmacokinetics, jugular and portal vein sampling, first pass metabolism
Assay type: in vivo, rat
Conditions: male, Sprague Dawley, rat, portal vein plasma; rats N=4; Compound 1 75 mg/kg oral gavage; portal sample; 0.5 hrs
Listed compounds paired with reported concentration at 0.5 h
Attribute Measured: concentration at 0.5 h (ng/mL)

> print(dat)
                                   compound  numeric.result
1  COc1cc2c(cc1OC)-c1n[nH]c(Nc3cccc(F)c3)c1C2 [Compound 1]             873
2  COc1cc2c(cc1OC)-c1nn(C3OC(C(=O)O)C(O)C(O)C3O)c(Nc3cccc(F)c3)c1C2 (stereo in doubt) [Cpd 1-GluB]             192
3  COc1cc2c(cc1OC)-c1n[nH]c(N(c3cccc(F)c3)[C@H]3O[C@@H](C(=O)O)[C@H](O)[C@@H](O)[C@@H]3O)c1C2 [Cpd 1-GluA]           17400

* * *

Assay: IV pharmacokinetics of Compound 1 and its glucuronides in rats
Format: in vivo, rat
Conditions: Sprague Dawley, rat, plasma; male rats N=4; Compound 1 2 mg/kg IV; retro orbital sinus; 0.33 hrs
Attribute Measured: concentration at 0.33 h (ng/mL)

> print(dat)
                                   compound       attribute.measured  numeric.result
1  COc1cc2c(cc1OC)-c1nn(C3OC(C(=O)O)C(O)C(O)C3O)c(Nc3cccc(F)c3)c1C2 (stereo in doubt)  concentration at 0.33 h            28.4
2  COc1cc2c(cc1OC)-c1n[nH]c(Nc3cccc(F)c3)c1C2  concentration at 0.33 h             286
3  COc1cc2c(cc1OC)-c1n[nH]c(N(c3cccc(F)c3)[C@H]3O[C@@H](C(=O)O)[C@H](O)[C@@H](O)[C@@H]3O)c1C2  concentration at 0.33 h            2970

* * *

Assay: Intraduodenal dosing with and without β-glucuronidase, catheterized rat
Type: in vivo
Conditions: male, Sprague Dawley, rat, plasma, other: intraduodenal, 10 mg/kg, rats N=6; Compound 1 10 mg/kg intraduodenal with β-glucuronidase; 0.5 hrs
Listed molecules paired with reported concentration at 0.5 h
Attribute Measured: concentration at 0.5 h (ng/mL)

> print(dat)
                                   molecule      attribute.measured  numeric.result
1  COc1cc2c(cc1OC)-c1nn(C3OC(C(=O)O)C(O)C(O)C3O)c(Nc3cccc(F)c3)c1C2 (stereo in doubt) [Cpd 1-GluB]  concentration at 0.5 h             503
2  COc1cc2c(cc1OC)-c1n[nH]c(N(c3cccc(F)c3)[C@H]3O[C@@H](C(=O)O)[C@H](O)[C@@H](O)[C@@H]3O)c1C2 [Cpd 1-GluA]  concentration at 0.5 h            4820
3  COc1cc2c(cc1OC)-c1n[nH]c(Nc3cccc(F)c3)c1C2 [Compound 1]  concentration at 0.5 h             107

* * *

Test: Intracolonic dosing with and without β-glucuronidase, catheterized rat
Format: in vivo
Settings: male, Sprague Dawley, rat, plasma, other: intracolonic, 10 mg/kg, rats N=6; Compound 1 10 mg/kg intracolonic with β-glucuronidase; 0.5 hrs
Attribute Measured: concentration at 0.5 h (ng/mL)

> print(dat)
                                   compound  numeric.result
1  COc1cc2c(cc1OC)-c1n[nH]c(N(c3cccc(F)c3)[C@H]3O[C@@H](C(=O)O)[C@H](O)[C@@H](O)[C@@H]3O)c1C2            4820
2  COc1cc2c(cc1OC)-c1nn(C3OC(C(=O)O)C(O)C(O)C3O)c(Nc3cccc(F)c3)c1C2 (stereo in doubt)             503
3  COc1cc2c(cc1OC)-c1n[nH]c(Nc3cccc(F)c3)c1C2             107

* * *

Listed molecules paired with reported AUC
Assay: Oral gavage pharmacokinetics, jugular and portal vein sampling, first pass metabolism
Type: in vivo, rat
Conditions: male, Sprague Dawley, rat, plasma (jugular vein sample), po, 75 mg/kg, rats N=4; Compound 1 75 mg/kg oral gavage; jugular sample; read-out: AUC average ± standard deviation 0 to infinite hours
Attribute Measured: AUC

> print(dat)
                                   molecule  attribute.measured        result
1  COc1cc2c(cc1OC)-c1n[nH]c(N(c3cccc(F)c3)[C@H]3O[C@@H](C(=O)O)[C@H](O)[C@@H](O)[C@@H]3O)c1C2                 AUC   169 µg·h/mL
2  COc1cc2c(cc1OC)-c1nn(C3OC(C(=O)O)C(O)C(O)C3O)c(Nc3cccc(F)c3)c1C2 (stereo in doubt)                 AUC  2.19 µg·h/mL
3  COc1cc2c(cc1OC)-c1n[nH]c(Nc3cccc(F)c3)c1C2                 AUC  2.41 µg·h/mL
